- Tested on: livers from treated male Sprague-Dawley rats
- condition_context: male, rat, in vivo
Mark y for Day 3 (scalar product) under -0.06, n if at or over.

CC(C)(C)CC(C)(C)c1ccc(OCCOCC[N+](C)(C)Cc2ccccc2)cc1 [BENZETHONIUM CHLORIDE]	y
CN(C)[C@@H]1C(O)=C(C(N)=O)C(=O)[C@@]2(O)C(O)=C3C(=O)c4c(O)cccc4[C@@](C)(O)[C@H]3C[C@@H]12	y
NN [hydrazine, reference compound]	y
C[C@]12CC[C@H]3[C@@H](CCC4=CC(=O)CC[C@@]43C)[C@@H]1CC[C@@H]2O	n
CCN(CC)N=O [N-nitrosodiethylamine, reference compound]	y
ClC(Cl)Cl [chloroform, reference compound]	n
